Hi there, I'd appreciate the recorded activity change, negative = cytotoxicity for every entry that follows.
tested on: Tov-21-G; test: Primary qHTS to identify gynecologic anti-cancer compounds using libraries of approved drugs and bioactive compounds (AID 1345084); settings: Gynecologic cancer cell panel viability, ATPlite luminescence, 48 h; series mostly up to 57.5 µM; further: on the % scale 0 is the no-effect control and ±100 the full control effect; nearly all actives have a fitted effect of over 55% in size
Results filed as inconclusive are left out. Calls of active or inactive are those of the source. The call rests on the fitted dose curve; in most records, active means well fitted cell-killing curve with a large enough effect; inconclusive means small, poorly fitted or top-dose-only effect, or effect the other way; inactive means flat fitted curve, though single readings scatter.

Sample records with activity change, negative = cytotoxicity:
Data point: CC(=O)OC1CC(C)(C(=O)O)CC2C3=CC(=O)C4C5(C)CCC(OC6OC(C(=O)O)C(O)C(O)C6OC6OC(C(=O)O)C(O)C(O)C6O)C(C)(C)C5CCC4(C)C3(C)CCC12C (stereo not drawn) ; activity change, negative = cytotoxicity = -2.43% [at 11.6 µM] (inactive)

Looking up CC(CCC1(O)OC2CC3C4CC=C5CC(O[C@@H]6O[C@H](CO)[C@@H](O[C@@H]7O[C@@H](C)[C@H](O)[C@@H](O)[C@H]7O)[C@H](O)[C@H]6O[C@@H]6O[C@@H](C)[C@H](O)[C@@H](O)[C@H]6O)CCC5(C)C4CCC3(C)C2C1C)CO[C@@H]1O[C@H](CO)[C@@H](O)[C@H](O)[C@H]1O (stereo partly drawn) , I found its activity change, negative = cytotoxicity recorded as -14.2% [at 11.6 µM] (inactive)

Entry C=CC(C)(O)CC/C=C(\C)C(=O)OC1C(O)C(CO)OC(OC(=O)C23CCC(C)(C)CC2C2=CCC4C5(C)CCC(OC6OC(COC7OCC(OC(C)=O)C(O)C7OC7OC(COC(C)=O)C(O)C(O)C7OC(C)=O)C(O)C(O)C6OC6OCC(O)C(O)C6O)C(C)(C)C5CCC4(C)C2(C)C(O)C3O)C1OC1OCC(OC2OCC(O)C(OC3OCC(O)C(O)C3O)C2O)C(O)C1O (stereo not drawn) ; activity change, negative = cytotoxicity = -26.1% [at 6.55 µM] (inactive)

Recorded result, C[C@H]1CC[C@@]2(OC1)O[C@H]1CC3[C@@H]4CC[C@@H]5C[C@@H](O[C@@H]6O[C@H](CO)[C@@H](O[C@@H]7O[C@H](CO[C@@H]8OC[C@@H](O)[C@H](O)[C@H]8O)[C@@H](O[C@@H]8O[C@H](CO)[C@H](O)[C@H](O)[C@H]8O)[C@H](O)[C@H]7O)[C@H](O)[C@H]6O)CC[C@]5(C)C4CC[C@]3(C)[C@H]1[C@@H]2C (stereo partly drawn) , activity change, negative = cytotoxicity: -1.12% [at 11.6 µM] (inactive)

// activity change, negative = cytotoxicity lookup, compound = CCC/C=C/C(=O)O[C@H]1CC(C)(C)CC2[C@@]13[C@H](O)C[C@]1(C)[C@@]2(CCC2[C@@]4(C)CC[C@H](O[C@@H]5O[C@H](C(=O)O)[C@@H](O)[C@H](O[C@@H]6O[C@H](CO)[C@H](O)[C@H](O)[C@H]6O[C@@H]6O[C@@H](C)[C@H](O)[C@@H](O)[C@H]6O[C@@H]6OC[C@](O)(CO)[C@H]6O)[C@H]5O[C@@H]5O[C@H](CO)[C@H](O)[C@H](O)[C@H]5O)C(C)(C)C4CC[C@]21C)O[C@H]3O (stereo partly drawn) , result: -24.3% [at 6.55 µM] (inactive)

// input: 3 compounds below; output: activity change, negative = cytotoxicity for each
1. CC(CCC1(O)OC2CC3C4CC=C5C[C@@H](O[C@@H]6O[C@H](CO)[C@@H](O[C@@H]7O[C@@H](C)[C@H](O)[C@@H](O)[C@H]7O)[C@H](O)[C@H]6O[C@@H]6O[C@@H](C)[C@H](O)[C@@H](O)[C@H]6O)CC[C@]5(C)C4CC[C@]3(C)[C@@]2(O)[C@@H]1C)CO[C@@H]1O[C@H](CO)[C@@H](O)[C@H](O)[C@H]1O (stereo partly drawn)
2. CC(C)NC(=O)N1CC[C@H](N=C2Nc3cc(F)ccc3N(CC(F)F)c3ccc(Cl)cc32)C1
3. COc1ccc(CN2CCN(CCCSc3cc(C(C)(C)C)c(O)c(C(C)(C)C)c3)CC2)c(OC)c1OC

A)
["0.779% [at 11.6 µM] (inactive)", "-31.2% [at 11.6 µM] (inactive)", "7.27% [at 11.6 µM] (inactive)"]
